Test system: panel of 140 standard cancer cell lines
Assay: ProliFiler-140 cancer cell line screen (CellTiterGlo, 72 h)
Type: cell-based
Details: Homo sapiens, SNU1, read-out: IC50 [M] (ProliFiler-140), SNU-1 (Stomach)
endpoint_name: IC50 (M)

molecule	tgt	endpoint_name	value_observed
COc1cc2cc(C(=O)N3C[C@@H](CCl)c4c3cc(OC(=O)N3CCN(C(=O)CCC(=O)N5CCN(C)CC5)[C@H]5CSSC[C@H]53)c3ccccc43)[nH]c2c(OC)c1OC [P-SS66C-CBI-TMI]	panel of 140 standard cancer cell lines	IC50	2.3e-08

###

Test system: panel of 140 standard cancer cell lines
Experiment: ProliFiler-140 cancer cell line screen (CellTiterGlo, 72 h)
Assay type: cell-based
Conditions: read-out: IC50 [M] (ProliFiler-140); MEC-1 (Blood)

molecule	IC50 / M
COc1cc2cc(C(=O)N3C[C@@H](CCl)c4c3cc(OC(=O)N3CCN(C(=O)CCC(=O)N5CCN(C)CC5)[C@H]5CSSC[C@H]53)c3ccccc43)[nH]c2c(OC)c1OC [P-SS66C-CBI-TMI]	1.08e-08

###

Test system: panel of 140 standard cancer cell lines
Test: ProliFiler-140 cancer cell line screen (CellTiterGlo, 72 h)
Assay type: cell-based
Conditions: MOLM-13 (Blood); listed as Dox; read-out: IC50 [M] (ProliFiler-140)
Procedure: Incubations were performed for 72 h before automated viability readout with CellTiterGlo (Figure 8). End of Figure S11 (part 5 of 5): ProliFiler-140 cancer cell line screening for cytotoxicity of the prodrugs. 8-data-point dose response curves from CellTiter-Glo® viability readout. ProliFiler-140 cell line panel part V

molecule	IC50 / M
COc1cccc2c1C(=O)c1c(O)c3c(c(O)c1C2=O)C[C@@](O)(C(=O)CO)C[C@@H]3O[C@H]1C[C@H](N)[C@H](O)[C@H](C)O1 [doxorubicin, reference compound]	2.12e-08

###

System: NCI-60 standardized human tumor cell line panel
Experiment: cells
Format: cell-based
Details: cell line SW-620 (CO:SW-620); TMI sheet; read-out: NCI-60 screening: Raw GI50
endpoint_name: GI50 (nM)

compound	endpoint_name	unit_abbrev	value_observed
COc1cc2cc(C(=O)N3CC(CCl)c4c3cc(OC(=O)N3CCN(C)C5CSSCC53)c3ccccc43)[nH]c2c(OC)c1OC (mixture of isomers) [Me-SS66C-CBI-TMI]	GI50	nM	260
COc1cc2cc(C(=O)N3C[C@@H](CCl)c4c3cc(OC(=O)N(CCC(=O)N3CCN(C)CC3)C3CCCCC3)c3ccccc43)[nH]c2c(OC)c1OC	GI50	nM	1900
COc1cc2cc(C(=O)N3CC(CCl)c4c3cc(OC(=O)N3CCN(C)C5CSSCC53)c3ccccc43)[nH]c2c(OC)c1OC (mixture of isomers) [Me-SS66T-CBI-TMI]	GI50	nM	58
COc1cc2cc(C(=O)N3C[C@@H](CCl)c4c3cc(OC(=O)N(CCC(=O)N3CCN(C)CC3)[C@H]3CCSSC3)c3ccccc43)[nH]c2c(OC)c1OC	GI50	nM	220

###

System: NCI-60 standardized human tumor cell line panel
Experiment: cells
Type: cell-based
Settings: MOLT-4; read-out: GI50
GI50 for assorted compounds
endpoint_name: GI50 (nM)

compound	value_observed
COc1cc2cc(C(=O)N3CC(CCl)c4c3cc(OC(=O)N3CCN(C)C5CSSCC53)c3ccccc43)[nH]c2c(OC)c1OC (mixture of isomers) [Me-SS66C-CBI-TMI]	70
COc1cc2cc(C(=O)N3C[C@@H](CCl)c4c3cc(OC(=O)N(CCC(=O)N3CCN(C)CC3)C3CCCCC3)c3ccccc43)[nH]c2c(OC)c1OC [P-CC60-CBI-TMI]	590
COc1cc2cc(C(=O)N3C[C@@H](CCl)c4c3cc(OC(=O)N(CCC(=O)N3CCN(C)CC3)[C@H]3CCSSC3)c3ccccc43)[nH]c2c(OC)c1OC [P-SS60-CBI-TMI]	90
COc1cc2cc(C(=O)N3C[C@@H](CCl)c4c3cc(OC(=O)N(C)CCSSCCN3CCOCC3)c3ccccc43)[nH]c2c(OC)c1OC [SS00M-CBI-TMI]	17
COc1cc2cc(C(=O)N3CC(CCl)c4c3cc(OC(=O)N3CCN(C)C5CSSCC53)c3ccccc43)[nH]c2c(OC)c1OC (mixture of isomers) [Me-SS66T-CBI-TMI]	9.9
